System: RAW-Dual (murine macrophage reporter line)
Assay: IRF reporter (Lucia luciferase) activity fold change vs agonist alone; higher = enhanced IRF activity
Conditions: modulator concentration 10 µM; agonist: MPLA […]
Kind request: treat 1 as inclusive, so IRF reporter at 1 or higher is condition met, anything lower is condition not met.

Compound | Assigned Label
Clc1ccc(-c2nc(-c3ccc(I)cc3)[nH]c2-c2ccc(Cl)cc2)cc1 | condition met
Nc1c2c(nc3ccccc13)CCCC2O (stereo not drawn) [Prestw-448] | condition not met
COc1cccc(-c2csc(NC(=O)C3CC3)n2)c1 | condition met
C[C@H](N[C@@H](CCc1ccccc1)C(=O)O)C(=O)N1CCC[C@H]1C(=O)O.O.O | condition not met
O=C(CC1CCCCN1S(=O)(=O)c1ccccc1)NCCC1=CCCCC1 (stereo not drawn) | condition met
O=C(NCCOc1cccc2cccnc12)c1c(F)cccc1F | condition met
O=C(CC1Sc2ccccc2NC1=O)Nc1ccccc1Cl (stereo not drawn) | condition met
CCOCCn1c(C2CCN(CCc3ccc(C(C)(C)C(=O)O)cc3)CC2)nc2ccccc21 | condition met
Cn1nc(CNS(=O)(=O)c2cccc(C(F)(F)F)c2)c2c1CCCC2 | condition met
O=C(O)c1ccccc1O | condition met
CN1CCN(CC(=O)N2c3ccccc3C(=O)Nc3cccnc32)CC1.Cl.Cl | condition met
CCc1ccccc1N(CC(=O)Nc1ccc(Cl)cc1C)S(C)(=O)=O | condition not met
Cl.N=C(N)NC(=O)c1nc(Cl)c(N)nc1N | condition met
COc1cccc(N2CC(C(=O)NC3CCN(c4nccn5c(C)nnc45)CC3)CC2=O)c1 (stereo not drawn) | condition met
CCOc1ccc(-c2nc3c(c(C)nn3-c3ccccc3)c3cc(OC)c(OC)cc23)cc1 | condition met
CN(C)CCOC1=Cc2ccccc2Sc2ccc(Cl)cc21 [Prestw-1368] | condition not met
O=C(c1csc(-c2ccccc2)n1)N1CCCN(C2CCC2)CC1 | condition met
Nc1nc(=O)n([C@@H]2CS[C@H](CO)O2)cc1F | condition not met
Cl.OC(CC#CCN1CCCC1)(c1ccccc1)c1ccccc1 | condition met
O=C(c1ccc(Cl)cc1)c1ccc(N2CCOCC2)c([N+](=O)[O-])c1 | condition met
CCN(CC)CCNC(=O)c1c(C)[nH]c(/C=C2\C(=O)Nc3ccc(F)cc32)c1C | condition not met
CC(=O)c1c(C)c2cnc(Nc3ccc(N4CCNCC4)cn3)nc2n(C2CCCC2)c1=O.Cl | condition not met
CNC(=O)c1ccccc1Sc1ccc2c(/C=C/c3ccccn3)n[nH]c2c1 | condition not met
O=C(NCCCn1ccc2cccnc21)c1ccccc1C(F)(F)F | condition met
O=c1ccc(-c2ccncc2)nn1CC1CCN(CC(F)(F)F)CC1 | condition not met
Cc1ccc(NC(=O)CSc2nc3ccccc3[nH]2)cc1.Cl | condition met
COc1ccc(C(=O)Nc2ccc(Br)c(C)c2)cc1 | condition met
O=C(CCCN1CCC(O)(c2ccc(Br)cc2)CC1)c1ccc(F)cc1 [Prestw-509] | condition met
CCCOc1ccc(C(=O)OCCN(CC)CC)cc1N.Cl | condition met
CN(C/C=C/C#CC(C)(C)C)Cc1cccc2ccccc12 | condition met
Cl.Cl.O=C1c2c(O)ccc(O)c2C(=O)c2c(NCCNCCO)ccc(NCCNCCO)c21 | condition not met
O=C(CCCCCCNC(=O)c1cnc(N(c2ccccc2)c2ccccc2)nc1)NO | condition met

* * *

Tested on: RAW-Dual (murine macrophage reporter line)
Assay: IRF reporter (Lucia luciferase) activity fold change vs agonist alone; higher = enhanced IRF activity
Settings: modulator concentration 10 µM; agonist: 3'3'-cGAMP 10 ug/mL

Compound | IRF reporter
CSc1nc2ccc(Nc3nc(N4CCCC4)nc(N4CCCC4)n3)cc2s1 | 0.906
COC1CCN(C2CCN(S(=O)(=O)c3ccccc3)CC2)CC1 | 0.981
O=C(Cn1ccnc1[N+](=O)[O-])NCCO | 1.09
CCCCC(=O)N(Cc1ccc(-c2ccccc2-c2nn[nH]n2)cc1)[C@H](C(=O)O)C(C)C | 0.589
c1ccc(OCc2nnc(-c3ccccc3)o2)cc1 | 0.87
Cl.Nc1c2c(nc3ccccc13)CCCC2 | 0.616
COC1CCN(c2ccc(C(=O)N3CC(n4cc(COc5ccccc5)nn4)C3)cc2)C1 (configuration not stated) | 0.758

* * *

Test system: RAW-Dual (murine macrophage reporter line)
Assay: IRF reporter (Lucia luciferase) activity fold change vs agonist alone; higher = enhanced IRF activity
Settings: modulator concentration 10 µM; agonist: MPLA […]

Molecule | IRF reporter
O=C(NC1CCCCC1)N(Cc1cnc2ccccn12)c1ccccc1 | 1.05
Nc1ccc(OCc2ccccc2)cc1 | 1.16
CN(C)C1C(O)=C(C(N)=O)C(=O)C2(O)C(O)=C3C(=O)c4c(O)cccc4C(C)(O)C3CC12.Cl (stereo unspecified) | 0.921
O=C(c1cc(C(F)(F)F)cc(C(F)(F)F)c1)N1CCOCC1CO (stereo unspecified) | 0.989
CCOC(=O)C1=C(C)NC(C)=C(C(=O)OCC)C1c1ccc(Cl)cc1 | 1.67
CC(C)OCc1ccc(C(=O)Nc2nnc(C(C)C)s2)o1 | 1.05
O=C1CCC(=O)N1C1CC2CCC(C1)N2C(=O)c1cnccn1 (stereo unspecified) | 1.31
Cc1cc(C(=O)Nc2ccccc2S(C)(=O)=O)no1 | 1.06
COC(=O)C1=C(C)N(C)C(C)=C(C(=O)OC)C1c1cccc(C(F)(F)F)c1 | 0.976
CNC(C)CCC=C(C)C.CNC(C)CCC=C(C)C (stereo unspecified) | 1.23
CC(=O)ON=C1C(C)=C(C#N)C2C1C2(C)C (stereo unspecified) | 0.857
Cc1ncn(CCNC(=O)Nc2ccc(OC(F)(F)F)cc2)c(=O)c1C | 1.11
CS(=O)(=O)N1CCCCC1C(=O)N(CC1CCCO1)c1nc2c(F)cccc2s1 (stereo unspecified) | 1.23
CNCC[C@H](Oc1cccc2ccccc12)c1cccs1.Cl | 1.24
CCOC(=O)c1ccc(N)cc1.Cl | 0.977
COc1ccccc1NS(=O)(=O)c1cc2c3c(c1)CC(=O)N3CCC2 | 0.871

* * *

Test system: RAW-Dual (murine macrophage reporter line)
Assay: IRF reporter (Lucia luciferase) activity fold change vs agonist alone; higher = enhanced IRF activity
Details: modulator concentration 10 µM; agonist: LPS 0.1 ug/mL
Measured Parameter: IRF reporter

Molecule | Measured Result
CN1CCC(=C2c3ccccc3CCc3sccc32)CC1.O=C(O)CC(O)C(=O)O | 1.09
CC(CS)C(=O)N1CCCC1C(=O)O (centres undefined) | 1.22
COc1ccc(Cn2c(SC)nc3c(c2=O)C2(CCCCC2)Cc2ccccc2-3)cc1 | 0.995
COc1ccc(C=NNC(=O)c2ccc(CN3CCOCC3)cc2)cc1[N+](=O)[O-] | 1.47

* * *

Test system: RAW-Dual (murine macrophage reporter line)
Test: NF-kB reporter (SEAP) activity fold change vs agonist alone; higher = enhanced NF-kB activity
Settings: modulator concentration 10 µM; agonist: CpG ODN 1826 0.5 ug/mL

Item Smiles | NF-kB reporter
COc1ccc(-c2cc(C(F)F)nn2-c2ccc(S(N)(=O)=O)cc2)cc1F | 0.989
CC(=O)Oc1cc(C(F)(F)F)ccc1C(=O)O | 0.977
COc1ccc(C(=O)NCc2ccc(OCCN(C)C)cc2)cc1OC.Cl | 0.988
COc1ccc2c(Cl)c(C(=O)N3CCc4ccccc4C3)sc2c1 | 0.875
COc1ccc(NC(=O)CN(c2ccc(C)c(C)c2)S(C)(=O)=O)cc1Cl | 0.912
O=C(Nc1ccc(S(=O)(=O)Nc2ccc(F)cc2)cc1)C(F)(F)F | 0.992

* * *

System: RAW-Dual (murine macrophage reporter line)
Assay: viability score (confluency relative to resting cells, overnight) (fraction); higher = more viable, active = viable (0.7 or more)
Conditions: modulator concentration 10 µM
viability score for assorted compounds
Measured Parameter: viability score

Compound | Measured Result
C[N+]1(C)CCC(OC(=O)C(O)(c2ccccc2)C2CCCC2)C1 (stereo unspecified) | 1.01
CC(=O)OC(OC(C)=O)c1ccc([N+](=O)[O-])cc1 | 1
CCn1c2ccccc2c2cc(CNCCc3ccccc3)ccc21 | 0.0405
COc1ccc(CNC23CC4CC(CC(C4)C2)C3)cc1OC | 1.01
CCN(CC)c1ccc(C=NNC(=O)c2ccccc2I)c(O)c1 | 0.926
O=[N+]([O-])c1cc(C(F)(F)F)ccc1N1CCN(CC=Cc2ccccc2)CC1 | 1.01
CCS(=O)(=O)N1CCN(c2ccc(Nc3ncc(C(N)=O)c(NC4CC4)n3)cc2)CC1.Cl | 0.899
CC(=O)Nc1ccc(S(=O)(=O)N2CCC(Oc3cc(C)nc(C)n3)C2)cc1 (stereo unspecified) | 0.97
CCC(C)(C)C(=O)Nc1ccc(C(C)=O)cc1 | 1
CCOc1cc(C=C2SC(=S)N(CCS(=O)(=O)O)C2=O)ccc1O | 1.02
Cc1cc(C)n(CCC(=O)N2CCc3nc4ccc(F)cn4c(=O)c3C2)n1 | 1
